Below is a list of entries, each paired with its recorded growth value.
- Test system: NCI-H460 lung
- Measurement protocol: NCI-60 one-dose screen, 48 h (100 = growth as untreated, 0 = no growth, -100 = all killed)
- Test parameters: 10 µM unless noted
Compounds without any hit were thinned out: in the full panel of roughly 83,000, 20% have a hit.
Kindly answer with a numeric value in %, unit omitted.

Reference set, count: 8
# Smiles, growth (%)
records = [
    ("O=C(CCN1C(=O)/C(=C/c2ccc(Cl)cc2)SC1=S)NCCCN1CCOCC1", 102),
    ("O=C(CCl)Oc1ccc(-c2ccccc2)c(Br)c1", 104),
    ("CN(C)S(=O)(=O)c1ccc(S(=O)(=O)Nc2cccc(Cl)c2N2CCCCC2)cc1", 93.6),
    ("COc1cc(-c2nn(-c3ccc(C)cc3)cc2C(=O)O)ccc1O", 104),
    ("Cc1ccc(/C=C2\\SC(=S)N(CC(=O)NCCCN3CCOCC3)C2=O)cc1", 103),
    ("Cc1nn(-c2ccc(F)cc2)c2ncnc(Nc3ccc(NC(=O)Nc4ccc(Cl)c(C(F)(F)F)c4)cc3)c12", 10.9),
    ("CCCSc1ccc2nc(NC(=O)OC)[nH]c2c1", 6.79),
    ("O=C(CN1C(=O)/C(=C/c2ccc(Cl)cc2)SC1=S)NCCCN1CCOCC1", 101),
]

**Q:** Tell me growth reported for NC(=O)c1cc(I)ccc1NC(=O)/C=C/c1ccccc1Cl
**A:** 0.527

**Q:** Tell me growth reported for COc1ccc(-c2nc3cc(C(=O)Nc4cc(OC)c(OC)c(OC)c4)ccc3n2C2CCCCC2)cc1
**A:** 99.7

###

- Tested on: SNB-19 CNS
- Measurement protocol: NCI-60 one-dose screen, 48 h (100 = growth as untreated, 0 = no growth, -100 = all killed)
- Test parameters: 10 µM unless noted
About 83,000 compounds went through this panel and 20% of them were active in at least one assay; those are over-represented in the sample as a whole.
Observed property: growth (%)
Kindly answer with a numeric value in %, unit omitted.

# Compound, Observed property, Result number
records = [
    ("COc1ccccc1Nc1nc(-c2cc3cccc(C(F)(F)F)c3oc2=O)cs1", "growth", 26.7),
    ("O=C1OC(c2ccccc2)C(O)=C1c1ccccc1 (stereo not given)", "growth", 105),
    ("C=CCSSC1N=CNc2nc[nH]c21 (stereo not given)", "growth", 89.1),
    ("O=C1c2cc3c(cc2-c2c1c1ccc(Cl)cc1c(=O)n2CCCN1CCOCC1)OCO3", "growth", 47.1),
    ("O=C1c2cc3c(cc2-c2c1c1ccc(F)cc1c(=O)n2C[C@H](O)[C@H](O)[C@H](O)CO)OCO3", "growth", 2.14),
    ("Cc1cc(N2CCN(c3ccnc4cc(Cl)ccc34)CC2)nc(NC2CCCCC2)n1", "growth", 56.6),
    ("CCN(CC)CCCCNc1c2ccc(Cl)cc2nc2ccc(OC)cc12", "growth", 1.53),
    ("Cn1cc(C(=O)c2nc(-c3c[nH]c4ccc(Br)cc34)no2)c2cc(F)ccc21", "growth", 99.1),
    ("O=C1OCC2=C1C(c1ccncc1)c1cc3c(cc1N2CCO)OCO3 (stereo not given)", "growth", 100),
]

**Q:** Tell me growth reported for COc1ccc(-c2nc3ccc(-c4nc5ccc(N6CCN(C)CC6)cc5[nH]4)cc3[nH]2)cc1OC
**A:** 90.3

###

- Test system: NCI-H23 lung
- Measurement protocol: NCI-60 one-dose screen, 48 h (100 = growth as untreated, 0 = no growth, -100 = all killed)
- Test parameters: 10 µM unless noted
Compounds without any hit were thinned out: in the full panel of roughly 83,000, 20% have a hit.
Class boundaries, taken from values of growth, are as follows: lower (below 40%), middle (40% to below 80%), upper (80% or more)

See these solved cases before continuing.
# Compound, Qualitative label
data = [
    ("CSc1nc2c(c(=O)[nH]1)C1(C(=O)Nc3ccccc31)c1c(nc(SC)[nH]c1=O)N2", "upper"),
    ("O=C(COc1cccc(/C=C2\\COc3ccccc3C2=O)c1)Nc1nccs1", "lower"),
    ("NC(N)=N/N=C(/c1ccccc1)c1ccc(F)cc1", "lower"),
    ("Brc1ccc(-c2csc(Nc3ccccn3)n2)cc1", "middle"),
    ("CCOc1cc2ncc(C#N)c(Nc3ccc(OCc4cccc(F)c4)c(Cl)c3)c2cc1NC(=O)CC1CCSS1 (stereo not given)", "middle"),
]

**Q:** Any idea which band O=C(Cn1cccc(Nc2ccccc2)c1=O)Nc1ccccc1 is in?
**A:** upper

**Q:** Any idea which band Cn1ccnc1C(=O)/C=C/c1ccc(CC(=O)Nc2ccccc2)cc1 is in?
**A:** lower

**Q:** Any idea which band COc1cc(/C=C/C(=O)c2ccc(O)c(CN3CCN(c4cc5c(cc4F)c(=O)c(C(=O)O)cn5C4CC4)CC3)c2)cc(OC)c1OC is in?
**A:** middle

**Q:** Any idea which band NC(=NCCCC1(c2ccccc2)CCCC1)Nc1ccc(Cl)cc1 is in?
**A:** middle

**Q:** Any idea which band C=CC(=O)Nc1cccc(-c2nc(SC)nc(NCCN3CCOCC3)c2C#N)c1 is in?
**A:** upper

**Q:** Any idea which band CC(=O)OCCC/C(=C/c1cc2ccccc2c2ccccc12)[N+](=O)[O-] is in?
**A:** lower

###

Below is a list of entries, each paired with its recorded growth value.
- Test system: HS 578T breast
- Measurement protocol: NCI-60 one-dose screen, 48 h (100 = growth as untreated, 0 = no growth, -100 = all killed)
- Test parameters: 10 µM unless noted
Compounds without any hit were thinned out: in the full panel of roughly 83,000, 20% have a hit. The source made the active and inactive calls. How the source made its calls: active means growth percent below 10; inactive means the rest.

Reference set, count: 10
# Compound, Observed property, Result
measured = [
    ("CCN=C1C=CC(=C(c2ccc(N)cc2)c2ccc(N(CC)CC)c(C)c2)C=C1", "growth", "-24.6% (active)"),
    ("CCOC(=O)c1c(C(=O)OCC)c2cc(-c3ccn4c(C(=O)c5ccccc5)c(C(=O)OCC)c(C(=O)OCC)c4c3)ccn2c1C(=O)c1ccccc1", "growth", "80.7% (inactive)"),
    ("Cc1ccc(/C=C2\\SC(=S)N(CC(=O)NCCCN3CCOCC3)C2=O)cc1", "growth", "87.4% (inactive)"),
    ("COc1cccc(/C=C2\\SC(=Nc3ccc(NC(C)=O)cc3)NC2=O)c1OC", "growth", "70.5% (inactive)"),
    ("COc1cc2c(cc1-c1c(C)noc1C)ncc1nc(C3CCOCC3)n([C@@H](C)COC(F)F)c12", "growth", "8.31% (active)"),
    ("CC[C@@H](C(=O)[C@@H](C)[C@@H](O)[C@H](C)[C@@H]1O[C@@H]([C@@H](CC)C(=O)O)CC[C@@H]1C)[C@H]1OC2(C=C[C@@H](O)[C@]3(CC[C@@](C)([C@H]4CC[C@](O)(CC)[C@H](C)O4)O3)O2)[C@H](C)C[C@@H]1C (stereo partly specified)", "growth", "30% (inactive)"),
    ("COc1ccc2c(c1)O/C(=C\\c1cccc(OCC(=O)Nc3nc4c(s3)CCCC4)c1)C2=O", "growth", "84% (inactive)"),
    ("Cc1nc(/N=C(\\N)NC(=O)Nc2cccc([N+](=O)[O-])c2)sc1C", "growth", "74.5% (inactive)"),
    ("COc1cc(C2CC(=O)c3ccccc3N2)cc(OC)c1OC (stereo unspecified)", "growth", "99.1% (inactive)"),
    ("COc1cc(C=Nc2oc(-c3ccccc3)c(-c3ccccc3)c2C#N)cc(CN2CCCCC2)c1O", "growth", "95.9% (inactive)"),
]

**Q:** Tell me growth reported for CCCCn1c(-c2ccc(C(=O)O/N=C(\N)c3ccc4ccccc4c3)cc2)nc(-c2ccccc2)c1-c1ccccc1
**A:** 57.9% (inactive)

**Q:** Tell me growth reported for Cc1cc(N2CCN(C)CC2)nc(NC2CCCC(Nc3ccnc4cc(Cl)ccc34)C2)n1 (stereo unspecified)
**A:** -18.7% (active)

**Q:** Tell me growth reported for Cc1ccc2c(c1)C(=O)/C(=C/c1cccc(OCC(=O)c3ccc(Cl)cc3)c1)CS2
**A:** 99.9% (inactive)

**Q:** Tell me growth reported for Cc1nn(-c2ccc(F)cc2)c2ncnc(Nc3ccc(NC(=O)Nc4ccc(Cl)c(C(F)(F)F)c4)cc3)c12
**A:** 31.3% (inactive)

**Q:** Tell me growth reported for COc1ccc(S(=O)(=O)N2CCCCCC2)cc1NC(=O)c1[nH]c(C)c2c1CCCCC2=O
**A:** 17.5% (inactive)

**Q:** Tell me growth reported for OCCN1CCN(c2nc(Nc3ccc(-c4nc5ccccc5[nH]4)cc3)c3cn[nH]c3n2)CC1
**A:** -47% (active)

**Q:** Tell me growth reported for CN(C)S(=O)(=O)c1ccc(S(=O)(=O)Nc2cccc(Cl)c2N2CCCCC2)cc1
**A:** 91.8% (inactive)

**Q:** Tell me growth reported for CCN1CCC2(CC1)NC(=O)c1c(c3ccc(Cl)c(Cl)c3n1C)C2C#N (stereo unspecified)
**A:** 53.8% (inactive)

**Q:** Tell me growth reported for COc1cccc(-c2nn(C(C)(C)C)cc2-c2ccnc(NCCCNS(=O)(=O)c3ccc(C)cc3)c2)c1
**A:** 103% (inactive)

**Q:** Tell me growth reported for C=C(C)[C@@H]1CC[C@]2(C(=O)OC)CC[C@]3(C)[C@H](CC[C@@H]4[C@@]5(C)C/C(=C/c6cccc(I)c6)C(=O)C(C)(C)[C@@H]5CC[C@]43C)[C@@H]12
**A:** 88% (inactive)

**Q:** Tell me growth reported for COc1cccc(NC(=O)c2sc3nc(C)c(C(C)=O)cc3c2N)c1
**A:** 43.3% (inactive)

**Q:** Tell me growth reported for COc1ccc2c(c1)c(-c1nonc1-c1cn(C)c3ccccc13)cn2C
**A:** 16.7% (inactive)

**Q:** Tell me growth reported for CCN(CC)c1ccc2c(c1)Oc1nc(N)c(C#N)c(N)c1C2Sc1ccc(SC)cc1 (stereo unspecified)
**A:** 26% (inactive)

**Q:** Tell me growth reported for C#CCOc1ccc2ncnc(Nc3cccc(CNC(=O)CCl)c3)c2c1
**A:** 37.8% [8.25 µM] (inactive)

**Q:** Tell me growth reported for CCNc1ncnc2c1cnn2C1CCCO1 (stereo unspecified)
**A:** 113% (inactive)

**Q:** Tell me growth reported for O=C(/C=C/c1ccccc1)c1ccc(O)c(CN2CCN(c3cc4c(cc3F)c(=O)c(C(=O)O)cn4C3CC3)CC2)c1
**A:** 31% (inactive)

**Q:** Tell me growth reported for C(=C\c1nccc2c1[nH]c1ccccc12)/c1ccccc1
**A:** 29.2% (inactive)

**Q:** Tell me growth reported for CC(C)(C)c1cc(C(C)(C)C)cc(S(=O)(=O)Nc2cc3ccccc3cc2C(=O)NCCN)c1
**A:** 73.2% (inactive)

**Q:** Tell me growth reported for O=C1/C(=C/C(Cl)=C/c2ccccc2)SC(=S)N1CCc1ccc(O)cc1
**A:** 37.5% (inactive)

**Q:** Tell me growth reported for COc1ccc(SC2c3cc(OC)c(OC)cc3Oc3nc(N)c(C#N)c(N)c32)cc1 (stereo unspecified)
**A:** -2.22% (active)

**Q:** Tell me growth reported for Cc1cc(C)c2nc3nc(C)cc(C)c3c(N)c2c1
**A:** 24.3% (inactive)

**Q:** Tell me growth reported for COc1ccc(O)c(N=Nc2nccs2)c1
**A:** 103% (inactive)

**Q:** Tell me growth reported for CC[N+](CC)=c1sc2c(s1)C(c1ccc(Cl)cc1)Oc1ccc(Cl)cc1-2 (stereo unspecified)
**A:** 18.3% (inactive)

**Q:** Tell me growth reported for CCCc1cc(=O)n2c(C(=O)Nc3cccc(C(=O)OCC)c3)c(C(=O)Nc3ccc(F)cc3)sc2n1
**A:** 14.3% [30 µM] (inactive)

**Q:** Tell me growth reported for COc1ccc(S(=O)(=O)N2CCN(C)CC2)cc1NC(=O)c1[nH]c(C)c2c1CCCCC2=O
**A:** 28.9% (inactive)

**Q:** Tell me growth reported for O=C(Nc1ccccc1Cl)c1ccc(NC2=C(Cl)C(=O)N(C3CCCCC3)C2=O)cc1
**A:** -0.344% [30 µM] (active)
